# assay target: renin (Homo sapiens, UniProt P00797)
# Sequence (P00797 67-406): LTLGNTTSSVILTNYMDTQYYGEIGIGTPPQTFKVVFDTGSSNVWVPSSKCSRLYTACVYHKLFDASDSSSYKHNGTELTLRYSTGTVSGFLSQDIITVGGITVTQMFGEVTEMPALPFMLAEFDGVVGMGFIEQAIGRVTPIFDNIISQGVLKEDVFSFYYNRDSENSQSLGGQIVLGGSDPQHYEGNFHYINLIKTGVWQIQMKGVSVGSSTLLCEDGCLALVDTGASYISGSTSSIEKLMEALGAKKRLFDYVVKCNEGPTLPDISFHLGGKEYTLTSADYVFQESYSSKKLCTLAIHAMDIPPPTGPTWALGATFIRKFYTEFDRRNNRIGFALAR
# assay remarks: renin inhibitory activity (IC50), determined as described in EP 0173481, pages 103-105
# Assay type: biochemical
# experimental conditions: renin inhibition; values given in molar units
pIC50: −log10 of the molar value. *1 amine or outer side, *2 acyl side, *3 side chain or, on linkers, in order; H or OH if unused. Where a SMILES comes first, the peptide text is derived from it. [ ]: non-standard residue; d: D form. The star is where a group is joined. NH(β-GlcNAc) = CC(=O)N[C@@H]1[C@@H](O)[C@H](O)[C@@H](CO)O[C@H]1N*; X1 = CC(C)C[C@H](N[*:1])[C@@H](O)C[C@H](C(=O)[*:2])C(C)C; X2 = OC[C@H]1O[C@@H](N*)[C@@H](O)[C@@H](O)[C@@H]1O; GlcN = OC[C@H]1OC(O)[C@H](N*)[C@@H](O)[C@@H]1O; NMeH = CN[C@@H](Cc1c[nH]cn1)C(=O)O; NHCH2(2-pyridyl) = c1ccc(CN*)nc1; Boc = CC(C)(C)OC(=O)*; CO = O=C([*:1])[*:2]
assay readout: pIC50

1) CC[C@H](C)[C@H](NC(=O)[C@@H](C[C@H](O)[C@H](CC(C)C)NC(=O)[C@H](Cc1c[nH]cn1)N(C)C(=O)[C@H](Cc1ccccc1)NC(=O)[C@@H]1CCCN1C(=O)N[C@H]1C(O)O[C@H](CO)[C@@H](O)[C@@H]1O)C(C)C)C(=O)NCc1ccccn1 (some centres unmarked) [Example 9] ({GlcN-CO}-PF[NMeH][X1]I-{NHCH2(2-pyridyl)}) : 9.31
2) CC[C@H](C)[C@H](NC(=O)[C@@H](C[C@H](O)[C@H](CC(C)C)NC(=O)[C@H](Cc1c[nH]cn1)N(C)C(=O)[C@H](Cc1ccccc1)NC(=O)[C@@H]1CCCN1C(=O)[C@H](CC(=O)N[C@@H]1O[C@H](CO)[C@@H](O)[C@H](O)[C@H]1NC(C)=O)NC(=O)OC(C)(C)C)C(C)C)C(=O)NCc1ccccn1 [Example 36] (Boc-D(NH(β-GlcNAc))PF[NMeH][X1]I-{NHCH2(2-pyridyl)}) : 9.39
3) COC(=O)CC[C@H](NC(=O)[C@@H](C[C@H](O)[C@H](CC1CCCCC1)NC(=O)[C@H](Cc1c[nH]cn1)N(C)C(=O)[C@H](Cc1ccccc1)NC(=O)[C@@H]1CCCN1C(=O)NC(CO)(CO)CO)C(C)C)C(=O)NCc1ccccn1 (relative stereo) : 9.52
4) CC(C)[C@H](C[C@H](O)[C@H](CC1CCCCC1)NC(=O)[C@H](Cc1c[nH]cn1)N(C)C(=O)[C@H](Cc1ccccc1)NC(=O)[C@@H]1CCCN1C(=O)N[C@H]1C(O)O[C@H](CO)[C@@H](O)[C@@H]1O)C(=O)NC[C@H](C)O (relative stereo) : 8.82
5) CC[C@H](C)[C@H](NC(=O)[C@@H](C[C@H](O)[C@H](CC(C)C)NC(=O)[C@H](Cc1c[nH]cn1)N(C)C(=O)[C@H](Cc1ccccc1)NC(=O)[C@@H]1CCCN1C(=O)[C@H](CC(=O)N[C@@H]1O[C@H](CO)[C@@H](O)[C@H](O)[C@@H]1O)NC(=O)OC(C)(C)C)C(C)C)C(=O)NCc1ccccn1 [Example 38] (Boc-D(X2)PF[NMeH][X1]I-{NHCH2(2-pyridyl)}) : 9.26
